Data origin, for the record: patent US20240050576A1

Below, each of the compounds is paired with its reported EC50 value.
- System: human FXN
- TEST DESCRIPTION: FXN mRNA expression by qRT-PCR in GM15850 cells after 48 hr compound treatment
- Type: cell-based
- TEST CONDITIONS: Homo sapiens; GM15850 cells, 48 hr incubation, hFXN normalized to hGAPDH; read-out: EC50 WT (nM, 48 hr)

Example cases with answers are listed next.
COMPOUND: CC(=O)N1c2ccc(-c3cnc(C(=O)NCCOCCOCCOCCOCCOCCOCCOCCOCCNC(=O)CCNC(=O)c4nc(NC(=O)CCNC(=O)c5cc(NC(=O)c6nc(NC(=O)CCNC(=O)c7cc(NC(=O)c8nccn8C)cn7C)cn6C)cn5C)cn4C)nc3)cc2N(Cc2ccccc2CO)C[C@@H]1C1CC1 [Compound 48]
EC50: > 500 nM

COMPOUND: CC(=O)N1c2ccc(-c3ccc(C(=O)NCCOCCOCCOCCOCCOCCOCCOCCNC(=O)CCNC(=O)c4nc(NC(=O)CCNC(=O)c5cc(NC(=O)c6nc(NC(=O)CCNC(=O)c7cc(NC(=O)c8nccn8C)cn7C)cn6C)cn5C)cn4C)cc3)cc2[C@H](Nc2ccc(Cl)cc2)C[C@@H]1C [Compound 35]
EC50: < 100 nM

Task item: Form field: reported EC50 of Cc1sc2c(c1C)C(c1ccc(Cl)cc1)=N[C@@H](CC(=O)Nc1ccc(OCCOCCOCCOCCOCCOCCOCCOCC(=O)NCCCN(C)CCCNC(=O)c3cc(NC(=O)c4nc(NC(=O)CCNC(=O)c5cc(NC(=O)c6nc(NC(=O)CCNC(=O)c7cc(NC(=O)c8nccn8C)cn7C)cn6C)cn5C)cn4C)cn3C)cc1)c1nnc(C)n1-2 [Compound 57]
Reply: 100 to 500 nM

---

- System: human FXN
- TEST DESCRIPTION: FXN mRNA expression by qRT-PCR in GM15850 cells after 48 hr compound treatment
- Assay type: cell-based
- TEST CONDITIONS: Homo sapiens; GM15850 cells, 48 hr incubation, hFXN normalized to hGAPDH; read-out: EC50 WT (nM, 48 hr)
READOUT NAME: EC50

Example cases with answers are listed next.
SMILES ENTRY: CC(=O)N1c2ccc(-c3ccc(C(=O)NCCOCCOCCOCCOCCOCCC(=O)NCCCN(C)CCCNC(=O)CCNC(=O)c4nc(NC(=O)CCNC(=O)c5cc(NC(=O)c6nc(NC(=O)CCNC(=O)c7cc(NC(=O)c8nccn8C)cn7C)cn6C)cn5C)cn4C)cc3)cc2[C@H](Nc2ccc(Cl)cc2)C[C@@H]1C
TARGET: human FXN
REPORTED: < 100 nM

SMILES ENTRY: COc1ccc2c(c1)C(c1ccc(Cl)cc1)=N[C@@H](CC(=O)Nc1ccc(OCCOCCOCCNC(=O)[C@H](CCCNC(=N)N)NC(=O)[C@H](CCCNC(=N)N)NC(=O)CCOCCOCCOCCNC(=O)CCNC(=O)c3nc(NC(=O)CCNC(=O)c4cc(NC(=O)c5nc(NC(=O)CCNC(=O)c6cc(NC(=O)c7nccn7C)cn6C)cn5C)cn4C)cn3C)cc1)c1nnc(C)n1-2
TARGET: human FXN
REPORTED: 100 to 500 nM

The record that follows has no EC50 shown yet.
Task item: Form field: reported EC50 of `COC[C@@H](C)n1c(C2CCN(C(=O)COCCOCCOCCOCCOCCOCCOCCNC(=O)CCNC(=O)c3nc(NC(=O)CCNC(=O)c4cc(NC(=O)c5nc(NC(=O)CCNC(=O)c6cc(NC(=O)c7nccn7C)cn6C)cn5C)cn4C)cn3C)CC2)nc2cnc3cc(-c4c(C)noc4C)c(OC)cc3c21`
Reply: > 500 nM

---

Below, each of the compounds is paired with its reported EC50 value.
- System: human FXN
- TEST DESCRIPTION: FXN mRNA expression by qRT-PCR in GM15850 cells after 48 hr compound treatment
- Type: cell-based
- TEST CONDITIONS: Homo sapiens; GM15850 cells, 48 hr incubation, hFXN normalized to hGAPDH; read-out: EC50 WT (nM, 48 hr)

SMILES ENTRY: Cc1sc2c(c1C)C(c1ccc(Cl)cc1)=N[C@@H](CC(=O)Nc1ccc(OCCOCCOCCOCCOCCOCCOCCOCCNC(=O)CCNC(=O)c3nc(NC(=O)CCNC(=O)c4cc(NC(=O)c5nc(NC(=O)CCNC(=O)c6cc(NC(=O)c7nccn7C)cn6C)cn5C)cn4C)cn3C)cc1)c1nnc(C)n1-2
EC50: 100 to 500 nM

SMILES ENTRY: CCCNC(=O)CCNC(=O)c1nc(NC(=O)CCNC(=O)c2cc(NC(=O)c3nc(NC(=O)CCNC(=O)c4cc(NC(=O)c5nc(NC(=O)COCCOCCOCCOCCOCCOCCOCCOCCOc6ccc(NC(=O)C[C@@H]7N=C(c8ccc(Cl)cc8)c8c(sc(C)c8C)-n8c(C)nnc87)cc6)cn5C)cn4C)cn3C)cn2C)cn1C
EC50: < 100 nM

SMILES ENTRY: Cc1sc2c(c1C)C(c1ccc(Cl)cc1)=N[C@@H](CC(=O)Nc1ccc(OCCOCCOCCOCCOCCOCCC(=O)N(C)CCCN(C)CCCN(C)C(=O)CCNC(=O)c3nc(NC(=O)CCNC(=O)c4cc(NC(=O)c5nc(NC(=O)CCNC(=O)c6cc(NC(=O)c7nccn7C)cn6C)cn5C)cn4C)cn3C)cc1)c1nnc(C)n1-2
EC50: 100 to 500 nM

SMILES ENTRY: CCCNC(=O)c1nc(NC(=O)CCNC(=O)c2cc(NC(=O)c3nc(NC(=O)CCNC(=O)c4cc(NC(=O)c5nc(NC(=O)CCNC(=O)COCCOCCOCCOCCOCCOCCOCCOCCOc6ccc(NC(=O)C[C@@H]7N=C(c8ccc(Cl)cc8)c8c(sc(C)c8C)-n8c(C)nnc87)cc6)cn5C)cn4C)cn3C)cn2C)cn1C
EC50: < 100 nM

SMILES ENTRY: Cc1noc(C)c1-c1cnc2c(-c3ccc(C(=O)NCCOCCOCCOCCOCCOCCC(=O)NCCCN(C)CCCNC(=O)CCNC(=O)c4nc(NC(=O)CCNC(=O)c5cc(NC(=O)c6nc(NC(=O)CCNC(=O)c7cc(NC(=O)c8nccn8C)cn7C)cn6C)cn5C)cn4C)cc3)cn([C@@H](C)c3ccccn3)c2c1
EC50: < 100 nM

SMILES ENTRY: Cc1noc(C)c1-c1cnc2c(-c3ccc(C(=O)NCCOCCOCCOCCOCCOCCOCCOCCOCCNC(=O)CCNC(=O)c4nc(NC(=O)CCNC(=O)c5cc(NC(=O)c6nc(NC(=O)CCNC(=O)c7cc(NC(=O)c8nccn8C)cn7C)cn6C)cn5C)cn4C)cc3)cn([C@@H](C)c3ccccn3)c2c1
EC50: < 100 nM

The record that follows has no EC50 shown yet.
Task item: Form field: reported EC50 of `Cc1sc2c(c1C)C(c1ccc(Cl)cc1)=N[C@@H](CC(=O)Nc1ccc(OCCOCCOCCOCCOCCOCCOCCOCCOCCNC(=O)CCNC(=O)c3nc(NC(=O)CCNC(=O)c4cc(NC(=O)c5nc(NC(=O)CCNC(=O)c6cc(NC(=O)c7nccn7C)cn6C)cn5C)cn4C)cn3C)nc1)c1nnc(C)n1-2`
Reply: < 100 nM

---

- Test system: human FXN
- TEST DESCRIPTION: FXN mRNA expression by qRT-PCR in GM15850 cells after 48 hr compound treatment
- Type: cell-based
- TEST CONDITIONS: Homo sapiens; GM15850 cells, 48 hr incubation, hFXN normalized to hGAPDH; read-out: EC50 WT (nM, 48 hr)
Below, each of the compounds is paired with its reported EC50 value.

SMILES ENTRY: CC(=O)N1c2ccc(-c3ccc(C(=O)NCCOCCOCCOCCOCCOCCOCCOCCOCCNC(=O)c4nc(NC(=O)CCNC(=O)c5cc(NC(=O)c6nc(NC(=O)CCNC(=O)c7cc(NC(=O)c8nc(NC(=O)CCNC(=O)COCCOCCOCCN9CCN(CC%10CCNCC%10)CC9)cn8C)cn7C)cn6C)cn5C)cn4C)cc3)cc2[C@H](Nc2ccc(Cl)cc2)C[C@@H]1C
TARGET: human FXN
READOUT NAME: EC50
REPORTED: > 500 nM

The record that follows has no EC50 shown yet.
Task item: Form field: reported EC50 of `COC[C@@H](C)n1c(C2CCN(C(=O)COCCOCCOCCOCCOCCOCCOCCOCCNC(=O)CCNC(=O)c3nc(NC(=O)CCNC(=O)c4cc(NC(=O)c5nc(NC(=O)CCNC(=O)c6cc(NC(=O)c7nccn7C)cn6C)cn5C)cn4C)cn3C)CC2)nc2cnc3cc(-c4c(C)noc4C)c(OC)cc3c21`
Reply: 100 to 500 nM
